Origin of values: patent US6359133B2

System: Pyriculaia oryzae
Format: in vivo
Conditions: rice, protective, 750 g/ha, evaluation 4 days after inoculation, vs untreated control
Here the recorded efficacy is given for each entry.
Just the number please, in %, no unit attached.

CNC(=O)C(=NOC)c1ccccc1Oc1ncnc(Oc2cc(C)ccc2C)c1F; 80
CNC(=O)C(=NOC)c1ccccc1Oc1ncnc(Oc2cccc(Cl)c2C)c1F; 80
CNC(=O)C(=NOC)c1ccccc1Oc1ncnc(Oc2ccccc2C#N)c1F; 80
CNC(=O)/C(=N/OC)c1ccccc1Oc1ncnc(Oc2ccccc2Cl)c1F; 80
CNC(=O)C(=NOC)c1ccccc1Oc1ncnc(Oc2ccc(C)cc2Cl)c1F; 80

Lab book: efficacy of CON=C(C(N)=O)c1ccccc1Oc1ncnc(Oc2ccccc2Cl)c1F noted as 80

Lab book: efficacy of CNC(=O)/C(=N/OC)c1ccccc1Oc1ncnc(Oc2ccccc2C)c1F noted as 80

Lab book: efficacy of C=CCOc1ccccc1Oc1ncnc(Oc2ccccc2C(=NOC)C(=O)NC)c1F noted as 80

Lab book: efficacy of CCC(=O)Oc1ccccc1Oc1ncnc(Oc2ccccc2C(=NOC)C(=O)NC)c1F noted as 80

Lab book: efficacy of CNC(=O)C(=NOC)c1ccccc1Oc1ncnc(Oc2c(C)cccc2C)c1F noted as 80
